# credit: patent US12037324B2

Please go through the items and note down their log10 of EC50.
target: hAT1R (Homo sapiens); test: cell-based; conditions: section of the 42nd table ending at r951, example numbering restarts after the DiscoveRx section; read-out: β-arrestin2 EC50
On a log10 scale: recorded EC50, unit nM.

Please look at this compound and report its log10 of EC50: CCCC1=NC2(CCOC2)C(=O)N1Cc1ccc(-c2cc(-c3ccccc3O)ccc2-c2nnn[nH]2)cc1 (single isomer, unassigned) [Example 164] 2.20

For the compound CCc1nc2c(C)cc(C)nc2n1Cc1ccc(-c2cc(-n3cc(C)nn3)ccc2-c2nnn[nH]2)cc1 [Example 232] , give its reported log10 of EC50. 2.00

Supply log10 of EC50 value. Item: CCc1nc2c(C)cc(C)nc2n1Cc1ccc(-c2cc(-c3cccc(C)c3)ccc2C(=O)O)cn1 [Example 195] 2.45

State its log10 of EC50 for this compound: CC1=NC2(CCOC2)C(=O)N1Cc1ccc(-c2cc(-c3ccccc3)ccc2-c2nn[nH]n2)cc1 (single isomer, unassigned) [Example 174] 2.80

Given CCCc1nc(CC)c(C(=O)O)n1Cc1ccc(-c2cc(-c3ccccc3)ccc2-c2nn[nH]n2)cc1 [Example 396] , respond with its log10 of EC50. 1.15

Give log10 of EC50 for CCOc1nc2cccc(C(=O)O)c2n1Cc1ccc(-c2cc(-c3ccccn3)ccc2-c2noc(=O)[nH]2)cc1 [Example 303] 1.58

Please give the documented log10 of EC50 of CCOc1nc2cccc(C(=O)O)c2n1Cc1ccc(-c2cc(Oc3cccc(OC)c3)ccc2-c2nn[nH]n2)cc1 [Example 332] 1.08

----------
molecular target: AGTR1 (Homo sapiens); construct: host or cells: Pathunter CHO-K1 AGTR1 β-arrestin cell line (CHO-K1); experiment: DiscoveRx β-arrestin2 recruitment assay (enzyme complementation, Pathunter CHO-K1 AGTR1 β-arrestin cell line); format: cell-based; details: DiscoveRx β-arrestin2 recruitment, maximal response
Criterion: DiscoveRx β-arrestin2 Ymax (%) strictly less than 40%. Met: y. Not met: n.

Quick check: does CCc1nc2c(C)cc(C)nc2n1Cc1ccc(-c2cc(-c3ccc4c(ccn4C)c3)ccc2-c2nn[nH]n2)cc1 [Example 17] have DiscoveRx β-arrestin2 Ymax (%) under 40%? y

In the record for CCCCc1ncc(C(=O)NCC(F)F)n1Cc1ccc(-c2cc(-c3ccccc3)ccc2-c2nn[nH]n2)cc1 [Example 364] , is DiscoveRx β-arrestin2 Ymax (%) less than 40%? y

Given the entry CCCC1=NC2(CCCC2)C(=O)N1Cc1ccc(-c2cc(-c3cc(OC)ccn3)ccc2-c2nn[nH]n2)cc1 [Example 115] , would its reported DiscoveRx β-arrestin2 Ymax (%) be below 40%? y

Is DiscoveRx β-arrestin2 Ymax (%) strictly under 40% for the entry CCCCC(=O)N(Cc1ccc(-c2cc(-c3ccccc3)ccc2-c2nn[nH]n2)cc1)C1(C(=O)O)CCCCC1 [Example 272] ? n

Quick check: DiscoveRx β-arrestin2 Ymax (%) of CCc1nc2c(C)cc(C)nc2n1Cc1ccc(-c2cc(-c3ccc(C(F)(F)F)cc3)ccc2-c2nn[nH]n2)cc1 [Example 7] under 40%? y

Hi there! Is DiscoveRx β-arrestin2 Ymax (%) for CCc1nc2c(C)cc(C)nc2n1Cc1ccc(-c2cc(Oc3ccccc3F)ccc2-c2nnn[nH]2)cc1 [Example 205] below 40%, do you know? n

Determine whether this compound shows DiscoveRx β-arrestin2 Ymax (%) lower than 40% (ties excluded): CCc1nc2c(C)cc(C)nc2n1Cc1ccc(-c2cc(-n3nnc4ccccc43)ccc2-c2nnn[nH]2)cc1 [Example 233] n

----------
target: hAT1R (Homo sapiens, UniProt P30556); assay: cell-based; details: agonist mode; read-out: BRET P63 EC50
measured_endpoint: EC50 (nM)
// note: answer is a bare numeric in nM

Send back hAT1R (Homo sapiens, UniProt P30556) EC50 of `CCc1nc2c(C)cc(C)nc2n1Cc1ccc(-c2cc(-c3cccc(C)c3)ccc2C(=O)O)nc1` only. 154

Enter EC50 (test system hAT1R (Homo sapiens, UniProt P30556)) for CCC1=NC2(CCOC2)C(=O)N1Cc1ccc(-c2cc(-c3cccc(C)c3)ccc2-c2nnn[nH]2)cc1 (single isomer, unassigned) [Example 169] 127

Identify measured EC50 obtained with hAT1R (Homo sapiens, UniProt P30556) for `CCCCC(=O)N(Cc1ccc(-c2cc(-c3cc(C)ccn3)ccc2-c2nn[nH]n2)cc1)C1(C(=O)O)CCCCC1` . 120

Give reported EC50 for `CCc1nc2c(C)cc(C)nc2n1Cc1ccc(-c2cc(-n3cc(C(C)C)nn3)ccc2-c2nnn[nH]2)cc1` (hAT1R (Homo sapiens, UniProt P30556)) 30.4

Look up and report EC50, with hAT1R (Homo sapiens, UniProt P30556) as system, for `CCOc1nc2cccc(C(=O)O)c2n1Cc1ccc(-c2cc(-n3cc(C)cn3)ccc2-c2nn[nH]n2)cc1` 2.9

Write down the reported EC50 (system: hAT1R (Homo sapiens, UniProt P30556)) of `CCc1nc2c(C)cc(C)nc2n1Cc1ccc(-c2cc(Oc3ncccc3Cl)ccc2-c2nn[nH]n2)cc1` 22.5

----------
Can you tell me DiscoveRx β-arrestin2 Ymax (%) for the items I'm about to list?
target: AGTR1 (Homo sapiens, UniProt P30556); construct: host or cells: Pathunter CHO-K1 AGTR1 β-arrestin cell line (CHO-K1); experiment: DiscoveRx β-arrestin2 recruitment assay (enzyme complementation, Pathunter CHO-K1 AGTR1 β-arrestin cell line); format: cell-based; details: DiscoveRx β-arrestin2 recruitment, maximal response
Provide only the numeric value, understood in %.

Fill in reported DiscoveRx β-arrestin2 Ymax (%) for this entry: CCc1nc2c(C)cc(C)nc2n1Cc1ccc(-c2cc(Oc3ccccc3)cc(C)c2-c2nnn[nH]2)cc1 [Example 211] 21.2

Report measured DiscoveRx β-arrestin2 Ymax (%); entry is CCc1nc2c(C)cc(C)nc2n1Cc1ccc(-c2cc(Oc3cncnc3)ccc2-c2nnn[nH]2)cc1 [Example 258] 35.2

Indicate the recorded DiscoveRx β-arrestin2 Ymax (%) value for this compound: CCCCC1=NC2(CCCC2)C(=O)N1Cc1ccc(-c2cc(-c3ccsn3)ccc2-c2nn[nH]n2)cc1 [Example 123] 4.9

Give the reported value of DiscoveRx β-arrestin2 Ymax (%) for this record: CCCCC1=NC2(CCOC2)C(=O)N1Cc1ccc(-c2cc(-c3ccccc3)ccc2-c2nnn[nH]2)cc1 (single isomer, unassigned) [Example 147] 23.0

Using the record for CCc1nc2c(C)cc(C)nc2n1Cc1ccc(-c2cc(-c3cn(CC(C)C)nn3)ccc2-c2nnn[nH]2)cc1 [Example 240] , state its measured DiscoveRx β-arrestin2 Ymax (%). 42.0

// Input: CCc1nc2c(C)cc(C)nc2n1Cc1ccc(-c2cc(-c3cccc(C)n3)ccc2-c2nn[nH]n2)cc1 [Example 59] . Output its DiscoveRx β-arrestin2 Ymax (%) only. 29.5

Give the measured DiscoveRx β-arrestin2 Ymax (%) for CCOc1nc2cccc(C(=O)O)c2n1Cc1ccc(-c2cc(-c3ccc(OC)cn3)ccc2-c2noc(=O)[nH]2)cc1 [Example 308] 51.8

----------
Biological target: hAT1R (Homo sapiens, UniProt P30556)
Sequence (P30556 1-359): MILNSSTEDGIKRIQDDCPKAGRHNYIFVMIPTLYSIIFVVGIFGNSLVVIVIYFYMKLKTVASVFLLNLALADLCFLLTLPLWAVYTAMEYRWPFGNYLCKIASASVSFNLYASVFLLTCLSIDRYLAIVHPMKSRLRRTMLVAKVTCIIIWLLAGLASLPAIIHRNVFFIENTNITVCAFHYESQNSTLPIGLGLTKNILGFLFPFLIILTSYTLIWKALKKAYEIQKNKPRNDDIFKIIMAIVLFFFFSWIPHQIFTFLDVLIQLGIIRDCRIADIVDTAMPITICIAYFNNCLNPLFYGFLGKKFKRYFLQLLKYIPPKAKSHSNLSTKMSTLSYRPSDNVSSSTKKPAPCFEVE
Assay: BRET Gq biosensor assay, agonist response, HEK293 cells
Type: cell-based
Conditions: section of the 42nd table directly before the BRET P63 section
Description: BRET β-arrestin2 and Gq Activation Assays In another aspect of the invention, association of the ATIR with signaling proteins is assessed using bioluminescence resonance energy transfer assays (Stephane Angers, Ali Salahpour et al. 2002). This technology measures the association between bioluminescent and fluorescent protein tags. Several of the plasmid constructs used in BRET experiments were previously described. […]
Field: pEC50. Provide a value for each of the molecules that follow.
In textbook form, pEC50 equals minus log to base ten of the concentration in mol/L.

Provide pEC50, recorded with hAT1R (Homo sapiens, UniProt P30556), of `CCCCC(=O)N(Cc1ccc(-c2cc(-c3cccnc3OC)ccc2-c2nn[nH]n2)cc1)C1(C(=O)O)CCCCC1` 6.30

Specify pEC50 for `CCCCc1ncc(C(=O)NC(C)(C)COC)n1Cc1ccc(-c2cc(-c3ccccc3)ccc2-c2nn[nH]n2)cc1` , system hAT1R (Homo sapiens, UniProt P30556). 6.53

GET pEC50 where system = hAT1R (Homo sapiens, UniProt P30556) and item = `CCCc1nc(CC)c(C(=O)OCC)n1Cc1ccc(-c2cc(-c3ccccc3)ccc2-c2nn[nH]n2)cc1` 7.90

Give pEC50 only, for `CCOc1nc2cccc(C(=O)O)c2n1Cc1ccc(-c2cc(-c3ccc(C(=O)N(C)C)cc3)ccc2-c2noc(=O)[nH]2)cc1` , using hAT1R (Homo sapiens, UniProt P30556) data. 7.32

# assay system hAT1R (Homo sapiens, UniProt P30556): give pEC50 of `CCCCc1nc(Cl)c(C(=O)O)n1Cc1ccc(-c2cc(-c3cnn(C(F)F)c3)ccc2-c2nn[nH]n2)cc1` 5.47

Give pEC50 for CCCCC(=O)N(Cc1ccc(-c2cc(N3CCCC(C)C3)ccc2-c2nn[nH]n2)cc1)[C@H](C(=O)O)C(C)C (some centres unmarked) tested on hAT1R (Homo sapiens, UniProt P30556). 6.07

Report its pEC50 with hAT1R (Homo sapiens, UniProt P30556) as the test system: CCCCC(=O)N(Cc1ccc(-c2cc(-c3ccccc3)ccc2-c2noc(=O)[nH]2)nc1)[C@H](C(=O)O)C(C)C [Example 434, 2,2,2-trifluoroacetate] 5.89

State pEC50 (hAT1R (Homo sapiens, UniProt P30556)) of CCCCC(=O)N(Cc1ccc(-c2cc(N3CCCC(C)C3)ccc2-c2nn[nH]n2)cc1)C1(C(=O)O)CCCCC1 (centres unmarked) . 6.21

Look up and report pEC50, with hAT1R (Homo sapiens, UniProt P30556) as system, for `CCOc1nc2cccc(C(=O)O)c2n1Cc1ccc(-c2cc(Oc3cccc(F)c3)ccc2-c2nn[nH]n2)cc1` 7.58

Give reported pEC50 for `CCCCc1nc(Cl)c(C(=O)O)n1Cc1ccc(-c2cc(-c3cc(OC)ccn3)ccc2-c2nn[nH]n2)cc1` (hAT1R (Homo sapiens, UniProt P30556)) 7.03

Please tell me the measured pEC50 for `CCOc1nc2cccc(C(=O)O)c2n1Cc1ccc(-c2cc(-c3ccccc3)ccc2-c2noc(=O)[nH]2)cc1` ; system: hAT1R (Homo sapiens, UniProt P30556). 7.74
